test system: T-47D breast; assay: NCI tumour cell line growth inhibition, 48 h
Assay Readout: TGI

Recorded TGI, per entry:
Cn1c2c(c3ccccc31)CCN1C(=O)CCC21 (stereo not drawn)	> 10 µM
CCCSc1ccc2[nH]c(N3C(=O)/C(=C/c4ccc(SC)cc4)N=C3c3ccccc3)cc2c1	> 50 µM

API: the following record is the query input.
Tell me reported TGI for `CN(C)N1C(=O)S/C(=C\c2ccc([N+](=O)[O-])cc2)C1=O` , tested with T-47D breast.
> 100 µM

###

TGI values by entry
tested on: K-562 leukemia; assay: NCI tumour cell line growth inhibition, 48 h

Recorded TGI, per entry:
N/N=C(/Cc1nc2ccc(C(=O)c3ccccc3)cc2[nH]c1=O)C(=O)Nc1ccc([N+](=O)[O-])cc1[N+](=O)[O-]	> 100 µM
CC1C2C=C(O)C(=O)C(C2=O)C1c1ccccc1 (centres undefined)	> 100 µM
COC(=O)CCNC(=O)OCc1ccccc1	> 100 µM

# TGI lookup, item Cn1cc2ccccc2c1-c1nc(F)nc(Oc2ccc3c(c2)CC[C@@H]2C3CC[C@@]3(C)C2C[C@H](O)[C@@H]3O)n1 (some centres undefined)
42.8 µM

# TGI lookup, item COc1ccc(N=NC(=O)NC(CC(C)C)C(=O)NCC(=O)O)cc1 (centres undefined)
> 29.1 µM

# TGI lookup, item O=C1C2C3CC(C4C5C=CC(C5)C34)C2C2C3CC(C12)C1C2C=CC(C2)C31 (centres undefined)
> 100 µM

# TGI lookup, item CCOC(=O)NC(Nc1ccc(F)cc1)(C(=O)OCC)C(F)(F)F (centres undefined)
> 100 µM

# TGI lookup, item O=C(NCC1CCCO1)c1ccc(NC2=C(Cl)C(=O)N(Cc3ccccc3)C2=O)cc1 (centres undefined)
34.3 µM

# TGI lookup, item `c1ccc(CNCCN(CCNCc2ccccn2)Cc2ccc3ccccc3c2)nc1`
8.73 µM

###

system: SK-MEL-28 melanoma; assay: NCI tumour cell line growth inhibition, 48 h
TGI values by entry

Recorded TGI, per entry:
COc1ccccc1/C=C/C1=NN(c2cccc(S(=O)(=O)O)c2)C2(C1)C(Cl)C(=O)N2c1nc2ccccc2s1 (configuration not stated)	> 100 µM
CO[C@H]1CC(O[C@@H]2/C(C)=C/C[C@@H]3C[C@@H](C[C@]4(CC[C@H](C)[C@@H](C5CCCCC5)O4)O3)OC(=O)[C@@H]3C=C(C)/C(=N/O)[C@H]4OC/C(=C\C=C\[C@@H]2C)[C@]43O)O[C@@H](C)C1O (some centres not stated)	1.97 µM
COc1ccc(N=NC(=O)NC(CC(C)C)C(=O)NCC(=O)O)cc1 (configuration not stated)	> 100 µM

# TGI lookup, item `COC(=O)c1cc2c3ccccc3n3c2c(n1)-c1[nH]c2ccccc2c(=O)c1C3`
> 100 µM

# TGI lookup, item [B-][P+](CC[P+]1([B-])[C@@H](C)[C@@H](O)[C@H](O)[C@@H]1C)(c1ccccc1)c1ccccc1OC (some centres not stated)
32.7 µM

# TGI lookup, item COC(=O)C1C(=O)O[C@@H](c2cc(OC)c(OC)cc2OC)C1C(=O)OC (mixture of isomers)
> 100 µM

# TGI lookup, item `CCOc1ccccc1N=Nc1c(-c2ccccc2)nn(C(=O)CC(=O)Nc2cccc(C)c2)c1-c1ccccc1`
> 100 µM

# TGI lookup, item CC(Nc1ccc(Cl)c(Cl)c1)c1ccncc1 (configuration not stated)
> 100 µM

# TGI lookup, item `Nc1nc(NCCCO)cc(=O)[nH]1`
> 100 µM
